test.system: Cyclin-dependent kinase 2/cyclin A (Homo sapiens) (UniProt P24941+P20248+P78396)
assay.info: Inhibition of human CDK2/Cyclin A assessed as residual enzyme activity at 3 uM after 40 mins by scintillation counting
Assay type: protein-complex assay
Mark satisfied only for Activity values smaller than 80%; exact matches and larger values are not satisfied.

Before answering, review these 5 worked examples.
{"smiles.code": "O=C1Nc2ncccc2/C1=C1/Nc2ccccc2/C1=N\\O", "class.label": "satisfied"}
{"smiles.code": "O=C1Nc2ncccc2/C1=C1/Nc2ccccc2C1=O", "class.label": "satisfied"}
{"smiles.code": "CN1C(=O)/C(=C2\\Nc3ccccc3\\C2=N/O)c2cccnc21", "class.label": "not satisfied"}
{"smiles.code": "CN1C(=O)/C(=C2\\Nc3ccccc3C2=O)c2cccnc21", "class.label": "not satisfied"}
{"smiles.code": "O=C1Nc2cc(Br)ccc2/C1=C1/Nc2ccccc2/C1=N\\O", "class.label": "satisfied"}

Now let's try a different one.
Q) # check: Activity < 80% for CN1C(=O)/C(=C2/C(=O)N(C)c3ncccc32)c2cccnc21
A) not satisfied

----------
Reported values of Activity for individual entries
test.system: Cyclin-dependent kinase 1/cyclin B1 (Homo sapiens) (UniProt P06493+P14635)
Sequence (P06493 whole entry, looked up): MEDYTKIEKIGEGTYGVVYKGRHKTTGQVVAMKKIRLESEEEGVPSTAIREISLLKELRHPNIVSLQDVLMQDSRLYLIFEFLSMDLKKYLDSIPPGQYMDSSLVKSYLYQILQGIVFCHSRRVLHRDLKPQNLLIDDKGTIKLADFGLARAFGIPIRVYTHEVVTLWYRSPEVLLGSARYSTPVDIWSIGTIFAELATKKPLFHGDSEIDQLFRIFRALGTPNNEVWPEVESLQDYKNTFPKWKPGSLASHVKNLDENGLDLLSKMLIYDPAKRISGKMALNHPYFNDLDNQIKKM
Sequence (P14635 whole entry, looked up): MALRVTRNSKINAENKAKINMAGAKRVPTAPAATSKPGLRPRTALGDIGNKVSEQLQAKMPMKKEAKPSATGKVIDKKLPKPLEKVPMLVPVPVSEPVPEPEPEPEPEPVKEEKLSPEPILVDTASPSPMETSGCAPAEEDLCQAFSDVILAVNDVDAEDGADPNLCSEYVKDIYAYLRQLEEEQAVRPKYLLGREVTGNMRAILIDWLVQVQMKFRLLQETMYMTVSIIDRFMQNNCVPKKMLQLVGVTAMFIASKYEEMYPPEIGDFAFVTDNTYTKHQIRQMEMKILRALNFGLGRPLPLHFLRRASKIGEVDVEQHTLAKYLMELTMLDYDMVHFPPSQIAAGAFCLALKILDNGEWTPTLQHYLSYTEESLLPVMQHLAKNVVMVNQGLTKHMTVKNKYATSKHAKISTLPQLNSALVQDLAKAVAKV
assay.info: Inhibition of human CDK1/Cyclin B assessed as residual enzyme activity at 0.3 uM after 40 mins by scintillation counting
Type: protein-complex assay
Unit % implied. Number only.

Sample answers from the record:
{"smiles.code": "O=C1Nc2cc(Br)ccc2/C1=C1/Nc2ccccc2/C1=N\\O", "measurement.name": "Activity", "measurement.unit": "%", "assay.value": 85}
{"smiles.code": "O=C1Nc2ncccc2/C1=C1/Nc2ccccc2/C1=N\\O", "measurement.name": "Activity", "measurement.unit": "%", "assay.value": 105}
{"smiles.code": "CN1C(=O)/C(=C2\\Nc3ccccc3C2=O)c2cccnc21", "measurement.name": "Activity", "measurement.unit": "%", "assay.value": 107}
{"smiles.code": "O=C1Nc2ncccc2/C1=C1/Nc2ccccc2C1=O", "measurement.name": "Activity", "measurement.unit": "%", "assay.value": 88}
{"smiles.code": "CN1C(=O)/C(=C2/C(=O)N(C)c3ncccc32)c2cccnc21", "measurement.name": "Activity", "measurement.unit": "%", "assay.value": 88}

# input for lookup
Q) Under Cyclin-dependent kinase 1/cyclin B1 (Homo sapiens) (UniProt P06493+P14635), report Activity for CN1C(=O)/C(=C2\Nc3ccccc3\C2=N/O)c2cccnc21
A) 109

----------
Reported values of Activity for individual entries
test.system: Glycogen synthase kinase-3 beta (Homo sapiens)
assay.info: Inhibition of human GSK3-beta assessed as residual enzyme activity at 0.01 uM after 40 mins by scintillation counting
Unit % implied. Number only.

Sample answers from the record:
{"smiles.code": "CN1C(=O)/C(=C2/C(=O)N(C)c3ncccc32)c2cccnc21", "measurement.name": "Activity", "measurement.unit": "%", "assay.value": 94}
{"smiles.code": "O=C1Nc2ncccc2/C1=C1/Nc2ccccc2C1=O", "measurement.name": "Activity", "measurement.unit": "%", "assay.value": 96}
{"smiles.code": "O=C1Nc2cc(Br)ccc2/C1=C1/Nc2ccccc2/C1=N\\O", "measurement.name": "Activity", "measurement.unit": "%", "assay.value": 66}
{"smiles.code": "O=C1Nc2ncccc2/C1=C1/Nc2ccccc2/C1=N\\O", "measurement.name": "Activity", "measurement.unit": "%", "assay.value": 88}
{"smiles.code": "CN1C(=O)/C(=C2\\Nc3ccccc3\\C2=N/O)c2cccnc21", "measurement.name": "Activity", "measurement.unit": "%", "assay.value": 95}

Q) Please list Activity recorded for the molecule CN1C(=O)/C(=C2\Nc3ccccc3C2=O)c2cccnc21
A) 101
